system: Vero E6; experiment: cell viability relative to DMSO; higher = less toxic; conditions: 72 h; 10 nM
endpoint name: cell viability (%)
The reply should contain only the number, in %.

Examples with their reported cell viability follow.
Cc1ccc(=O)n(-c2ccc(O)cc2)c1 [F351]	100
Cc1ccc(-n2nc(C(C)(C)C)cc2NC(=O)NCc2cc(F)ccc2Oc2ccc3c(cnn3CCO)c2)cc1 [pexmetinib]	100
O=C(O)c1c(Sc2ccccc2)c2cc(Cl)ccc2n1Cc1ccc(Cl)cc1 [nTZDpa]	96
Clc1ccc2c(c1)CCc1cccnc1C2=C1CCNCC1 [desloratadine]	102

**Query** Please give the documented cell viability of CCCCCCCCCCCCCCCCOP(=O)([O-])OCC[N+](C)(C)C [miltefosine]
**Result** 101

**Query** Specify cell viability for O=C(O)CC[C@H]1CC[C@@](c2cc(F)ccc2F)(S(=O)(=O)c2ccc(Cl)cc2)CC1 [MK-0752] and stop.
**Result** 99.7

**Query** Complete the entry with cell viability for CC(C)(N)C(=O)N[C@H](COCc1ccccc1)C(=O)N1CCC2(CC1)CN(S(C)(=O)=O)c1ccccc12 [ibutamoren]
**Result** 103

**Query** Dear colleague, please send me the reported cell viability for N#CN=C(NCCCCCCOc1ccc(Cl)cc1)Nc1ccncc1 [GMX1778] when you can.
**Result** 99

**Query** Quote cell viability reported for OC(CCCN1CCN(c2ncc(F)cn2)CC1)c1ccc(F)cc1 (centres undefined) please.
**Result** 98.1
